This collection of values is drawn from ChEMBL document CHEMBL1153081.

Tested on: Plasmodium falciparum
protocol: Antiplasmodial activity against chloroquine-resistant Plasmodium falciparum Bre1 assessed as inhibition of [3H]hypoxanthine incorporation
Type: functional, organism-based
Would you kindly list pIC50 for each of these molecules?
Note on units: pIC50 is unitless, being -log10 of a concentration expressed in mol/L.

[in] If you can, please state the reported pIC50 value of `NCCC(=O)NCCC(=O)Nc1c2ccccc2nc2ccccc12` .
[out] 4.67

[in] Item under review: `NCCCCCCCC(=O)Nc1c2ccccc2nc2ccccc12` . Reported pIC50?
[out] 4.57

[in] Return reported pIC50; argument: `COc1ccc2nc3cc(Cl)ccc3c(NCCCCCCNc3c4ccc(Cl)cc4nc4ccc(OC)cc34)c2c1`
[out] 5.95

[in] Requested field: pIC50. Item: `COc1ccc2nc3cc(Cl)ccc3c(NCCN)c2c1`
[out] 6.55

[in] Fill in: pIC50 of `NCCCCCCNc1c2ccccc2nc2ccccc12` is ___
[out] 6.37

[in] Consider the molecule `COc1ccc2nc3cc(Cl)ccc3c(NCCCCN)c2c1` and give its measured pIC50.
[out] 6.52

[in] Requested read-out: pIC50. Entry: `CCCCCCCNc1c2ccc(Cl)cc2nc2ccc(OC)cc12`
[out] 4.79

---

protocol: Selectivity index, ratio of IC50 for human KB cells to IC50 for chloroquine-resistant Plasmodium falciparum W2
Format: toxicity, cell-based
details: read-out: Ratio IC50
measured.metric: selectivity ratio
Simply state the number, no unit and no words.

[in] Any idea what its selectivity ratio is? The molecule is `COc1ccc2nc3cc(Cl)ccc3c(NCCN)c2c1`
[out] 8

[in] Which selectivity ratio is listed for `NCCCCCCNc1c2ccccc2nc2ccccc12` ?
[out] 1.3

[in] What does the data say about its selectivity ratio? Entry: `COc1ccc2nc3cc(Cl)ccc3c(NCCCCN)c2c1`
[out] 2.4

[in] I have this molecule here, `NCCCCCCCC(=O)Nc1c2ccccc2nc2ccccc12` , and I need its recorded selectivity ratio.
[out] 1.1

[in] Value lookup for selectivity ratio; key = `NCCC(=O)NCCC(=O)Nc1c2ccccc2nc2ccccc12`
[out] 2.9

[in] Which selectivity ratio value is on record for `COc1ccc2nc3cc(Cl)ccc3c(NCCCCCCN)c2c1` ?
[out] 3.9

[in] Field request: selectivity ratio | item: `COc1ccc2nc3cc(Cl)ccc3c(NCCCCCCNc3c4ccc(Cl)cc4nc4ccc(OC)cc34)c2c1`
[out] 0.01

[in] Can you look up the measured selectivity ratio of `CCCCCCCNc1c2ccc(Cl)cc2nc2ccc(OC)cc12` for me?
[out] 0.02

---

Field: selectivity ratio. Provide a value for each of the compounds that follow.
protocol: Selectivity index, ratio of IC50 for human KB cells to IC50 for chloroquine-resistant Plasmodium falciparum FCR3/Gambia
Assay type: toxicity, cell-based
details: read-out: Ratio IC50
Write no unit; give the number alone.

[in] Fill blank: measured selectivity ratio of the compound `NCCCCCCNc1c2ccccc2nc2ccccc12` is ____.
[out] 2.2

[in] // lookup selectivity ratio for `COc1ccc2nc3cc(Cl)ccc3c(NCCN)c2c1`
[out] 6

[in] Request the reported selectivity ratio associated with `CCCCCCCNc1c2ccc(Cl)cc2nc2ccc(OC)cc12`
[out] 0.06

[in] What does the record list as selectivity ratio for `NCCC(=O)NCCC(=O)Nc1c2ccccc2nc2ccccc12` ?
[out] 3.4

[in] // selectivity ratio lookup, key: `COc1ccc2nc3cc(Cl)ccc3c(NCCCCCCN)c2c1`
[out] 3.5

[in] I am curious: what selectivity ratio value has been reported for `COc1ccc2nc3cc(Cl)ccc3c(NCCCCCCNc3c4ccc(Cl)cc4nc4ccc(OC)cc34)c2c1` ?
[out] 0.05

[in] What selectivity ratio value was documented for this compound, `COc1ccc2nc3cc(Cl)ccc3c(NCCCCN)c2c1` ?
[out] 2.4

[in] For the compound shown here, `NCCCCCCCC(=O)Nc1c2ccccc2nc2ccccc12` , give the reported selectivity ratio.
[out] 1.8

---

protocol: Selectivity index, ratio of IC50 for human KB cells to IC50 for chloroquine-sensitive Plasmodium falciparum 3D7
Format: toxicity, cell-based
details: read-out: Ratio IC50
measured.metric: selectivity ratio
Keep it simple and answer with nothing but the number.

[in] Which selectivity ratio is reported for this compound? `COc1ccc2nc3cc(Cl)ccc3c(NCCN)c2c1`
[out] 50

[in] Name the reported selectivity ratio value associated with the compound `COc1ccc2nc3cc(Cl)ccc3c(NCCCCN)c2c1`
[out] 8.9

[in] Form field: reported selectivity ratio of `NCCCCCCCC(=O)Nc1c2ccccc2nc2ccccc12`
[out] 1.3

[in] I have this compound here, `NCCCCCCNc1c2ccccc2nc2ccccc12` , and I need its recorded selectivity ratio.
[out] 0.7

[in] What value of selectivity ratio has been reported for the following compound? `COc1ccc2nc3cc(Cl)ccc3c(NCCCCCCN)c2c1`
[out] 5.4

[in] Name the reported selectivity ratio value associated with the compound `NCCC(=O)NCCC(=O)Nc1c2ccccc2nc2ccccc12`
[out] 1.5

[in] Recorded selectivity ratio of `CCCCCCCNc1c2ccc(Cl)cc2nc2ccc(OC)cc12` , please.
[out] 0.04

---

protocol: Binding affinity to synthetic hematin by spectrophotometry
measured.metric: Kd
Remember to put the unit after the number in your answer.

[in] Please give the measured Kd for this compound: `NCCC(=O)NCCC(=O)Nc1c2ccccc2nc2ccccc12`
[out] 4 µM

[in] Would you kindly share the measured Kd for `NCCCCCCNc1c2ccccc2nc2ccccc12` ?
[out] 4.6 µM

[in] Please look up its Kd: `COc1ccc2nc3cc(Cl)ccc3c(NCCCCCCNc3c4ccc(Cl)cc4nc4ccc(OC)cc34)c2c1`
[out] 20 µM

[in] Requested field: Kd. Item: `COc1ccc2nc3cc(Cl)ccc3c(NCCCCCCN)c2c1`
[out] 4.4 µM

[in] Name the recorded Kd for CCN(CC)CCCC(C)Nc1ccnc2cc(Cl)ccc12 (stereo not drawn) .
[out] 5.4 µM

[in] Which Kd reading was recorded for the compound `COc1ccc2nc3cc(Cl)ccc3c(NCCCCN)c2c1` ?
[out] 8.1 µM

[in] Need Kd, item `COc1ccc2nc3cc(Cl)ccc3c(NCCN)c2c1`
[out] 4.2 µM

[in] Kd lookup needed for `CCCCCCCNc1c2ccc(Cl)cc2nc2ccc(OC)cc12` , thanks.
[out] 5.4 µM

---

protocol: Selectivity index, ratio of IC50 for human KB cells to IC50 for chloroquine-resistant Plasmodium falciparum Bre1
Type: toxicity, cell-based
details: read-out: Ratio IC50
measured.metric: selectivity ratio

[in] Requested read-out: selectivity ratio. Entry: `COc1ccc2nc3cc(Cl)ccc3c(NCCCCCCNc3c4ccc(Cl)cc4nc4ccc(OC)cc34)c2c1`
[out] 0.045

[in] Quick check: selectivity ratio of `COc1ccc2nc3cc(Cl)ccc3c(NCCN)c2c1` ?
[out] 7

[in] Item `COc1ccc2nc3cc(Cl)ccc3c(NCCCCN)c2c1` has what recorded selectivity ratio?
[out] 2

[in] // query selectivity ratio value for entry `COc1ccc2nc3cc(Cl)ccc3c(NCCCCCCN)c2c1`
[out] 4.1

[in] Looking for the measured selectivity ratio of `NCCCCCCNc1c2ccccc2nc2ccccc12` , can you help?
[out] 1.8

[in] Quick check: selectivity ratio of `NCCCCCCCC(=O)Nc1c2ccccc2nc2ccccc12` ?
[out] 2

[in] Record request: selectivity ratio value, item `NCCC(=O)NCCC(=O)Nc1c2ccccc2nc2ccccc12`
[out] 2.8

[in] So what's the measured selectivity ratio for this one? `CCCCCCCNc1c2ccc(Cl)cc2nc2ccc(OC)cc12`
[out] 0.05
